molecular target: PKN2 (human); assay: radiometric filter-binding kinase assay; settings: compound 1.0 µM
propertyLabel: residual activity (%)

P = C=CC(=O)N1CCC[C@@H](n2nc(-c3ccc(Oc4ccccc4)cc3)c3c(N)ncnc32)C1
Q = CCCCCc1ccc(/C=C/[C@H](O)[C@@H](CO)NC)cc1
Q: Which value of residual activity is smaller, the one for P or the one for Q ? Refer to your chosen entry by its label in the reply.
Result: Q
(Q: 70%, P: 100%)

----------
molecular target: IKBKE (human) (UniProt Q14164); test: radiometric filter-binding kinase assay; settings: compound 1.0 µM
Sequence (Q14164 whole entry, looked up): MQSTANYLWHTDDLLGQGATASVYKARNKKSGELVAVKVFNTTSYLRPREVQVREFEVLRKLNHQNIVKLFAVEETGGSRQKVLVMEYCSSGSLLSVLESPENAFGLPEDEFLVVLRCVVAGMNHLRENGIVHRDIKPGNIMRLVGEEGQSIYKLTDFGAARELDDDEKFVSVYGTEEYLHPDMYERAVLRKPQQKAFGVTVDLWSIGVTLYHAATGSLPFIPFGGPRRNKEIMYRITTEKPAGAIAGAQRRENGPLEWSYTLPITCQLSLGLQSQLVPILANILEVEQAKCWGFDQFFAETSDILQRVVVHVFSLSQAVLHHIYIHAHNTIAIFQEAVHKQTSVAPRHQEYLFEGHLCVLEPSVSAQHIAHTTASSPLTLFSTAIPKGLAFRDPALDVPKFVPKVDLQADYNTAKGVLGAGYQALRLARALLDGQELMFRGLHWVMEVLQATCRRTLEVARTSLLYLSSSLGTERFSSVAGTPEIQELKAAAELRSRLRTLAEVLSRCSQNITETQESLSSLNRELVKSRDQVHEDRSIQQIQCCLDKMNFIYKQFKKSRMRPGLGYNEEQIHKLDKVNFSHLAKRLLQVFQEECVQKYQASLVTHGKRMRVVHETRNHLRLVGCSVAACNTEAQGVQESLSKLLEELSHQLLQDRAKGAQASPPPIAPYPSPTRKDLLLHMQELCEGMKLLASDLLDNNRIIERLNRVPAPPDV
propertyLabel: residual activity (%)

residual activity measured on O=C(NOCC(O)CO)c1ccc(F)c(F)c1Nc1ccc(I)cc1Cl (stereo not given) = 102

a = CN1C(=O)[C@@H](Cc2c[nH]c3ccccc23)NC1=S
b = COc1cc2ncn(-c3cc(OCc4ccccc4S(C)(=O)=O)c(C#N)s3)c2cc1OC
c = Cc1nc(-c2ccc(OCC(C)C)c(C#N)c2)sc1C(=O)O
Q: # rank_down: sort by residual activity, max first Give the labels in the order specified.
Result: c, a, b
(c: 138%, a: 90%, b: 9%)

----------
target: UniProt P49760; assay: radiometric filter-binding kinase assay; details: compound 10.0 µM
Sequence (P49760 whole entry, looked up): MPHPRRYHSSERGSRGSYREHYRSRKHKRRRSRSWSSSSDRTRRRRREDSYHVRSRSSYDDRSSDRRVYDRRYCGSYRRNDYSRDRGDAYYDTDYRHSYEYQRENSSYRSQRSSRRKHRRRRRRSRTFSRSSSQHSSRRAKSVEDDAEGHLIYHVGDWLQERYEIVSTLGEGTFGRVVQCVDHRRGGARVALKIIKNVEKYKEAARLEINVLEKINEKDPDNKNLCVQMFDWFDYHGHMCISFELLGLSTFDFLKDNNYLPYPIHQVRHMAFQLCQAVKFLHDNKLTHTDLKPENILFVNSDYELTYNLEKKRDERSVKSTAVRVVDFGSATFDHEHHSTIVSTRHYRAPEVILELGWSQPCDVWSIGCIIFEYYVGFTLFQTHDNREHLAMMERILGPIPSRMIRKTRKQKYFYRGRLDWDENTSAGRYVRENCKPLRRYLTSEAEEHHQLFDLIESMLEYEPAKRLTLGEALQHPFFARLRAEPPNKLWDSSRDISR
propertyLabel: residual activity (%)

Example cases with answers are listed next.
residual activity measured on "CCNc1nc(Nc2cc(F)c(C(=O)N3CCOCC3)cc2OC)ncc1C(F)(F)F" = 9

residual activity measured on "COc1cc2ncn(-c3cc(OCc4ccccc4S(C)(=O)=O)c(C#N)s3)c2cc1OC" = 18

residual activity measured on "c1ccc2c(-c3cnn4cc(-c5ccc(N6CCNCC6)cc5)cnc34)ccnc2c1" = 5

residual activity measured on "O=C(Nc1ccccc1-c1cn2c(CN3CCNCC3)csc2n1)c1cnc2ccccc2n1" = 18

residual activity measured on "NC(=O)c1cc2c(-c3cccc(-c4ccccc4)c3)cnc(N)c2s1" = 2

P = CNc1nc(-c2ccc3c(N)n[nH]c3c2)cc(N2C[C@@H](C(=O)NC3CCCCC3)CC[C@H]2C)n1
Q = NC(=O)c1ccc(-c2ccc(Oc3cncc4sc(-c5nn[nH]n5)cc34)cc2)cc1
Q: Please tell me which of the two, P or Q , has the higher reported residual activity value. Refer to your chosen entry by its label in the reply.
Result: P

----------
target: UniProtKB Q15759; assay: radiometric filter-binding kinase assay; details: compound 1.0 µM
Sequence (Q15759 whole entry, looked up): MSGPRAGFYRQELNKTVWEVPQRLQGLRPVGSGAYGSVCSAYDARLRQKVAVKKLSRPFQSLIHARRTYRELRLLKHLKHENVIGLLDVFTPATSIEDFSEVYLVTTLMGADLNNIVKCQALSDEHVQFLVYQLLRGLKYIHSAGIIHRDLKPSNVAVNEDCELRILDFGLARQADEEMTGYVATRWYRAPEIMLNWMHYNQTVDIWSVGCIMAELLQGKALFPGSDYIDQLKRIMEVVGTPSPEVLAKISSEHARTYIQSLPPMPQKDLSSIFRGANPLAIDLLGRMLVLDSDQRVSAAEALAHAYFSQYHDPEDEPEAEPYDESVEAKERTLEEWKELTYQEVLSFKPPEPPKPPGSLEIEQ
propertyLabel: residual activity (%)

residual activity measured on "CN1C(=O)[C@@H](Cc2c[nH]c3ccccc23)NC1=S" = 91

residual activity measured on "NC(=O)Nc1ccc2c(c1)/C(=C/c1cc(-c3cccnc3)c[nH]1)C(=O)N2" = 80

I = COc1cc2ncn(-c3cc(OCc4ccccc4S(C)(=O)=O)c(C#N)s3)c2cc1OC
II = Cc1cccc(-c2nn(C(=S)Nc3ccccc3)cc2-c2ccnc3ccccc23)n1
Q: Which value of residual activity is smaller, the one for I or the one for II ? Refer to your chosen entry by its label in the reply.
Result: II

A = O=C(Nc1nc2cc(C(F)(F)F)cc(NC3CC3)n2n1)c1cccnc1
B = COc1cc(O)c2c(c1)/C=C/C[C@H](O)[C@H](O)C(=O)/C=C\C[C@H](C)OC2=O
Q: Please tell me which of the two, A or B , has the higher reported residual activity value. Refer to your chosen entry by its label in the reply.
Result: A

The values you see were collected from the kinase profiling compilation of Christmann-Franck et al. (2016).
